Catalogue of pEC50 readings, one per entry.
# assay.system: T1, human tissue factor (TF) on MDA-MB-231, NCI-H358 and HCT116 cells (human, UniProt P13726 33-295)
# T1 construct: whole, on cells; also called TF antigen; CD142
# protocol.description: flow cytometry on MDA-MB-231 cells
By convention, pEC50 is the negative base-10 log of a molar concentration.

Below are worked cases with known answers.
{"columns": ["binder", "quantitative.result"],
 "data": [
  ["hu310-5 (antibody, human IgG1, kappa, V domains shown) VH: EVQLVQSGAEVKKPGASVKVSCKASGYSFTGYYMNWVRQAPGQGLEWMGEINPSTGGSTYNQKFKARVTMTVDQSTSTVYMELSSLRSEDTAVYYCARRELGGPFGYWGQGTTVTVSS VL: SIQMTQSPSSLSASVGDRVTITCKASQSVSNGIAWYQQKPGKSPKLLIYFASNRYTGVPSRFSGSGYGTDFTFTISSLQPEDIATYYCQQDYSSPWTFGGGTKVEIKR", 8.81],
  ["hu10H10-34 (antibody, V domains shown, H8+L3; Full-length IgG) VH: EVQLVQSGSELKKPGASVKVSCKASGRTFITYWIEWVRQRPGQGLEWMGDILPGSGSTNYNENFKGRATFSADTSVSTAYLQISSLKAEDTAVYYCARSGYYGNSGFAYWGQGTLVTVSS VL: DIQMTQSPSSLSASVGDRVTITCKSSQSLLSSGNQKNYLTWYQQKPGKAPKLLIYWASTREEGVPSRFSGSGSGTDFTLTISSLQPEDFATYYCQNDYTYPLTFGQGTKLEIK", 8.95],
  ["hu310-7 (antibody, human IgG1, kappa, V domains shown) VH: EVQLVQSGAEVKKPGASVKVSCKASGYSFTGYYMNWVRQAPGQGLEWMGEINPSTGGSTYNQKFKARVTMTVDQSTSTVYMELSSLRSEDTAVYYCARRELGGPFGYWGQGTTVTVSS VL: SIQMTQSPSSLSASVGDRVTITCKASQSVSSGIAWYQQKPGKSPKLLIYFASNRYTGVPSRFSGSGYGTDFTFTISSLQPEDIATYYCQQDYSSPWTFGGGTKVEIKR", 8.68],
  ["chimeric antibody CH310 (antibody, human IgG1, kappa, V domains shown, Murine 310# variable regions + human constant regions) VH: EVQLQQSGPELVKPGASLKISCKASGYSFTGYYMNWVKQSPEKSLEWIGEINPSTGGSTYNQKFKAKATLTVDQSSNTAYMQLKSLTSEDSAVYYCARRELGGPFGYWGQGTPVTVSA VL: SIVMTQTPKFLLVSSGDRVTITCKASQSVSNGIAWYQQKPGQSPKLLIYFASNRYTGVPDRFTGSGYGTDFTFTISTVQAEDLAVYFCQQDYSSPWTFGGGTKLEIKR", 8.74],
  ["hu10H10-19 (antibody, V domains shown, H1+L4; Full-length IgG) VH: EVQLVQSGAEVKKPGASVKVSCKASGYTFITYWIEWVRQRPGQGLEWMGDILPGSGSTNYNENFKGRVTFTADTSTSTVYMQLSSLRSEDTAVYYCARSGYYGNSGFAYWGQGTLVTVSS VL: DIQMTQSPSSLSASVGDRVTITCKSSQSLLSSGNQKNYLTWYQQKPGKAPKLLIYWASTRESGVPSRFSGSGSGTDFTLTISSLQPEDFATYYCQNDYTYPLSFGQGTKLEIK", 8.63]
]}

For record hu310-10 (antibody, human IgG1, kappa, V domains shown) VH: EVQLVQSGAEVKKPGASVKVSCKASGYSFTGYYMNWVRQAPGQGLEWMGEINPSTGGSTYNQKFKARVTLTVDQSTNTAYMELSSLRSEDTAVYYCARRELGGPFGYWGQGTTVTVSS VL: SIVMTQSPDSLAVSLGERATINCKASQSVSNGIAWYQQKPGQSPKLLIYFASNRYTGVPDRFSGSGYGTDFTLTISSLQAEDVAVYYCQQDYSSPWTFGGGTKVEIKR the listed pEC50 is 8.88

Data provenance is patent EP4703388A1.
